# EXPERIMENT SUMMARY: DPPH radical scavenging activity (electron donating ability)
# CONDITION: isolated compounds
The entries below are paired with their reported DPPH radical scavenging activity (IC50).

COMPOUND	DPPH radical scavenging activity (IC50)
O=C1c2c(O)cc(O)cc2O[C@H](c2ccc(O)cc2)[C@H]1O [Dihydrokaempferol, dihydrokaempferol]	>50 µg/mL
COc1c(-c2ccc(O)cc2)oc2cc(O)cc(O)c2c1=O	>50 µg/mL
O=c1c(O)c(-c2ccc(O)cc2)oc2cc(O)cc(O)c12	>50 µg/mL
